# TARGET_OF_ASSAY: 5-HT1A receptor (Homo sapiens)
# Sequence (P08908 1-422): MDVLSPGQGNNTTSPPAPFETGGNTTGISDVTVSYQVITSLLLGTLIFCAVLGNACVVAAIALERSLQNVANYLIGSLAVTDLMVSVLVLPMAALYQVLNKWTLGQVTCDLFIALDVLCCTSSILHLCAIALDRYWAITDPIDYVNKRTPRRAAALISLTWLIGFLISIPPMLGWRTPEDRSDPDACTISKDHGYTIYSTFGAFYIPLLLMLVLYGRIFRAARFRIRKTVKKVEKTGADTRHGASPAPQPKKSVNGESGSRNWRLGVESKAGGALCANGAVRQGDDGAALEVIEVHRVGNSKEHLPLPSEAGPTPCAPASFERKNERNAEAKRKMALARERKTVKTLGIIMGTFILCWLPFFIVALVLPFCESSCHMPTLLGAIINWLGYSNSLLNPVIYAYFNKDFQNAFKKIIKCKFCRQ
# ASSAY_NAME: 5-HT1A receptor affinity: displacement of [3H] 8-OH-DPAT
# Type: binding
# Set-up: expressed in transfected cells
# CONDITIONS: displacement of [3H] 8-OH-DPAT; CHO cells stably transfected with human 5-HT1A receptors; read-out: 5-HT1A Receptor Affinity Ki
PROPERTY_LABEL: pKi
pKi (log units): -log10 of the concentration in mol/L.

Below are worked cases with known answers.
CCCN(CCCc1c[nH]c2ccc(F)cc12)C1COc2c(C(N)=O)ccc(F)c2C1 (stereo not shown) [Compound 120] : 6.86
CCCN(CCCc1c[nH]c2ccc(F)cc12)C1COc2cccc(OC)c2C1 (stereo not shown) [Compound 23] : 7.80
COc1cccc2c1CC(N(C)CCCc1c[nH]c3ccc(F)cc13)CO2 (stereo not shown) [Compound 33] : 7.40
NC(=O)c1ccc(F)c2c1CC(N(CCCCc1c[nH]c3ccc(F)cc13)CC1CC1)CO2 (stereo not shown) [Compound 82] : 8.79
CCN(CCc1coc2c(OC)cccc12)C1COc2c(F)ccc(C(N)=O)c2C1 (stereo not shown) [Compound 157] : 7.08

Look up and report measured pKi for this entry: COc1cccc2c1CC(N(CCCc1c[nH]c3ccc(F)cc13)CC1CCC1)CO2 (stereo not shown) [Compound 42] 7.30

Look up and report measured pKi for this entry: CCCN(C(C)CCCc1c[nH]c2ccc(F)cc12)C1COc2c(F)ccc(C(N)=O)c2C1 (single isomer, unassigned; (-)) [Compound 14b] 8.73

Look up and report measured pKi for this entry: CCCN(C(C)CCCc1c[nH]c2ccc(F)cc12)C1COc2c(F)ccc(C(N)=O)c2C1 (single isomer, unassigned; (+)) [Compound 14a] 7.38

Look up and report measured pKi for this entry: CCCN(CCCCc1c[nH]c2ccc(F)cc12)C1COc2c(F)ccc(C(=O)NC)c2C1 (stereo not shown) [Compound 93] 8.12

Look up and report measured pKi for this entry: CCCN(CCCc1coc2c(OC)cccc12)C1COc2c(F)ccc(C(N)=O)c2C1 (stereo not shown) [Compound 163] 9.13

Look up and report measured pKi for this entry: NC(=O)c1ccc(F)c2c1CC(N(CCCCn1ccc3ccc(F)cc31)CC1CC1)CO2 (stereo not shown) [Compound 195] 8.49

###

# TARGET_OF_ASSAY: 5-HT1A receptor (Homo sapiens, UniProt P08908)
# Sequence (P08908 1-422): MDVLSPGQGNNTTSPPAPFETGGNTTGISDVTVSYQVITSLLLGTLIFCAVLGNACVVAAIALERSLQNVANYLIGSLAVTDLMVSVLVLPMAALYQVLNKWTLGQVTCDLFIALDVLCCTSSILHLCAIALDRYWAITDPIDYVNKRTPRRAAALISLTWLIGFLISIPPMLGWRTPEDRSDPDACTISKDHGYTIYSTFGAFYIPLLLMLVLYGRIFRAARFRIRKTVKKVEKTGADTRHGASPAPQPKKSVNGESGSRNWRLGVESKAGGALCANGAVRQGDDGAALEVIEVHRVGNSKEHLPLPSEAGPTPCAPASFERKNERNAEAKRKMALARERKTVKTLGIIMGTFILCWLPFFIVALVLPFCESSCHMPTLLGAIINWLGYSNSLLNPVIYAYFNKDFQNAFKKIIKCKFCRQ
# ASSAY_NAME: 5-HT1A receptor affinity: displacement of [3H] 8-OH-DPAT
# Assay type: binding
# Parameters: expressed in transfected cells
# CONDITIONS: displacement of [3H] 8-OH-DPAT; CHO cells stably transfected with human 5-HT1A receptors; read-out: 5-HT1A Receptor Affinity Ki
Hi! Just check whether Ki is below 30 nM. Below gives satisfied, equal or above gives not satisfied.

Take a look at these entries with their results.
NC(=O)c1ccc(F)c2c1OCC(NCCCc1c[nH]c3ccc(F)cc13)C2 (stereo not shown) : not satisfied
NC(=O)c1ccc(F)c2c1CC(N(CC1CCc3[nH]c4ccc(F)cc4c3C1)C1CCC1)CO2 (single isomer, unassigned; (+)) [Compound 174b] : satisfied
NC(=O)c1ccc(F)c2c1OCC(N(CCCCc1c[nH]c3ccc(F)cc13)CC1CC1)C2 (stereo not shown) : not satisfied

Is Ki strictly under 30 nM for the entry CCCN(CCCCn1ccc2ccc(F)cc21)C1COc2c(F)ccc(C(N)=O)c2C1 (stereo not shown) ? satisfied

Is Ki strictly under 30 nM for the entry CC(CCc1c[nH]c2ccc(F)cc12)N(CC1CC1)C1COc2c(F)ccc(C(N)=O)c2C1 (single isomer, unassigned; (+)) [Compound 15b] ? not satisfied

Is Ki strictly under 30 nM for the entry CCNC(=O)c1cccc2c1CC(N(CCCc1c[nH]c3c(F)cc(F)cc13)C1CCC1)CO2 (stereo not shown) ? satisfied

Is Ki strictly under 30 nM for the entry COc1cccc2c1CC(N(CCCc1c[nH]c3ccccc13)C1CCC1)CO2 (stereo not shown) ? satisfied

Is Ki strictly under 30 nM for the entry CCCN(CCCCn1ccc2cccc(F)c21)C1COc2c(F)ccc(C(N)=O)c2C1 (stereo not shown) ? satisfied

Is Ki strictly under 30 nM for the entry CCCN(CCCc1c[nH]c2c(Cl)cccc12)C1COc2c(F)ccc(C(N)=O)c2C1 (stereo not shown) ? satisfied

Is Ki strictly under 30 nM for the entry CCCN(CCc1c[nH]c2ccc(F)cc12)C1COc2cccc(OC)c2C1 (stereo not shown) ? satisfied

Is Ki strictly under 30 nM for the entry COC(=O)c1ccc(F)c2c1C[C@H](NCCCCc1c[nH]c3ccc(F)cc13)CO2 [Compound 57a] ? not satisfied

Is Ki strictly under 30 nM for the entry COC(=O)c1ccc(F)c2c1C[C@@H](N(CCCCc1c[nH]c3ccc(F)cc13)C1CCC1)CO2 [Compound 58b] ? not satisfied

Is Ki strictly under 30 nM for the entry CCCCN(CCCc1c[nH]c2ccc(F)cc12)C1COc2c(F)ccc(C(N)=O)c2C1 (stereo not shown) ? not satisfied

Is Ki strictly under 30 nM for the entry CCN(CC1CCc2[nH]c3ccc(F)cc3c2C1)[C@H]1COc2c(F)ccc(C(N)=O)c2C1 (single isomer, unassigned; (-)) [Compound 176a] ? not satisfied

Is Ki strictly under 30 nM for the entry NC(=O)c1ccc(F)c2c1CC(N(CC1CCc3[nH]c4ccc(F)cc4c3C1)C1CCC1)CO2 (single isomer, unassigned; (-)) [Compound 174d] ? not satisfied

Is Ki strictly under 30 nM for the entry CCN(CCCc1c[nH]c2c(Cl)cccc12)C1COc2c(F)ccc(C(N)=O)c2C1 (stereo not shown) ? satisfied

Is Ki strictly under 30 nM for the entry CCCN(CCCCc1c[nH]c2ccc(F)cc12)C1COc2c(F)ccc(C(N)=O)c2C1 (stereo not shown) ? satisfied

Is Ki strictly under 30 nM for the entry CCCN(CCCc1coc2ccccc12)C1COc2c(F)ccc(C(N)=O)c2C1 (stereo not shown) ? satisfied
